molecular target: cynomolgus PILRA, ectopically expressed on 293 cells (cynomolgus monkey); experiment: flow cytometry, 293 cells expressing target
Sequence (chain, as listed by the source): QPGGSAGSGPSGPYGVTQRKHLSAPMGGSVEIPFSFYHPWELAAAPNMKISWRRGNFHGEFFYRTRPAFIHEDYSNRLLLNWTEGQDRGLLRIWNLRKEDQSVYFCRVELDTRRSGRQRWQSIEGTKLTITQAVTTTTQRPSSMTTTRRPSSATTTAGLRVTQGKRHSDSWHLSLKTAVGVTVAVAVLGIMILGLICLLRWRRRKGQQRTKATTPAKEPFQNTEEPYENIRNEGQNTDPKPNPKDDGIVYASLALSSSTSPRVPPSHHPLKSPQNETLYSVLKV
Entries and their log10 of EC50
// units: µg/mL (pre-log); metric: EC50; scale: log10

Asked: Suppose we examine the binder E3 (antibody, V domains shown, second hybridoma campaign) VH: QAYLQQSGAELVRSGASVKMSCKASGNTFTYYNLHWIRQTPGQGLEWIGYIFPGNGDAYYNQNFKGKATLTADTSSSTAYMQISSLTFEDSAVYFCARSPHYYGSGFDYWGQGTPLTVSS VL: DIQMTQSSSYLSVSLGGGVTITCKASDHINNWLAWYQQKPGNAPRLLISGATSLETGVPSRFSGSGSGKDYTLSITSLQTEDVATYYCQQYWSTPWTFGGGTKLEIK ; what log10 of EC50 value has been reported?
Given back: -0.82

Asked: Suppose we examine the binder B1 (antibody, V domains shown, B-cell cloning campaign (mice)) VH: DVKLVESGGGLVKLGGSLKLSCAASGFTFSSYYMSWVRQTPEKRLEWVAAINSNGDRSYYPDTVKGRFTISRDNAKNTLYLQMSSLKSEDTAFYYCASHGNYYGSPWFAYWGQGTLVTVSA VL: ETTVTQSPASLSVATGEKVTIRCKTSTDIDDDMNWYQQKPGEPPKLLISEGNTLRPGVPSRFSSSGYGTDFVFTIENTLSEDVADYYCLQNDHMPLTFGGGTKLEIK ; what log10 of EC50 value has been reported?
Given back: 0.30

Asked: Suppose we examine the binder A11 (antibody, V domains shown, phage campaign; same VH/VL as E17) VH: QVQLVQSGAEVKKPGASVKVSCKASGYTFTSYYMHWVRQAPGQGLEWMGWINPNNGDTNYAQKFQGRVTMTRDTSTSTVYMELSSLRSEDTAVYYCARAGYFDWLLDYYGMDVWGQGTTVTVSS VL: DIVMTQSPLSLPVTPGEPASISCRSSQSLLHSNGYNYLDWYLQKPGQSPQLLIYDASNLETGVPDRFSGSGSGTDFTLKISRVEAEDVGVYYCMQALQTPFGPGTKVDIK ; what log10 of EC50 value has been reported?
Given back: 1.03

Asked: Suppose we examine the binder D6 (antibody, V domains shown, second hybridoma campaign; same VH/VL as D8) VH: EVQLQQSGPELVKPGASVKMSCKASGYTFTDYYMDWVKQSHGESFEWIGRVNPYTGDSSYNQKFKGKATLTVDKSSNTAYLEFNSLTSEGSAVYYCARSDGYHYKYAMDYWGQGTSVTVSS VL: DVVMTQTPLSLPVSLGDQASISCRSSQSLVHSTGNTYLHWYLQKPGQSPNLLIYKISNRFSGVPDRFSGSGSGTDFTLKISRVEAEDLGVYFCSQSTHVPYTFGGGTKLEIK ; what log10 of EC50 value has been reported?
Given back: -1.30

Asked: Suppose we examine the binder A5 (antibody, V domains shown, phage campaign) VH: QVQLVQSGAEVKKPGSSVKVSCKASGYTFTDYYMNWVRQAPGQGLEWMGGIIPIFGTADYAQRFQGRVTITADESTSTAYMELSSLRSEDTAVYYCARDAGYYGMDVWGQGTLVTVSS VL: EIVMTQSPATLSVSPGERATLSCRASQSVSNYLAWYQQKPGQAPRLLIYGASTRATGIPARFSGSGSGTEFTLTISSLQSEDFAVYYCQQFDDLPLTFGPGTKVEIK ; what log10 of EC50 value has been reported?
Given back: 0.45

Asked: Suppose we examine the binder D7 (antibody, V domains shown, second hybridoma campaign) VH: QVQLKESGPGLVAPSQSLSITCTVSGFSLTSYAISWVRQPPGKGLEWLGIIWTGGDTNYNSGLKSRLSITKDNSKSQVFLKMNSLQTDDTSRYYCARNSLFYGITPYYFDYWGQGTTLTVSS VL: DIVLTQSPATLSVTPGDSVSLSCRASQSIRNDLHWYQQKSHESPRLLIKYASQSISGIPSRFSGSGSGTDFTLTINVLETEDFGMYFCQQSNGWPLTFGAGTKLELK ; what log10 of EC50 value has been reported?
Given back: 0.00

Asked: Suppose we examine the binder A14 (antibody, V domains shown, phage campaign) VH: QVQLVQSGAEVKKPGASVKVSCKASGYTFTSYYMYWVRQAPGQGLEWMGWMNPNSGNTGFAQKFQGRVTMTRDTSTSTVYMELSSLRSEDTAVYYCASGYYDSWSGETDYGMDVWGQGTTVTVSS VL: DIQMTQSPSSLSASVGDRVTITCRASQSISSYLNWYQQKPGKAPKLLIYDASTLESGVPSRFSGSGSGTDFTLTISSLQPEDFATYYCQQSYKTPYTFGQGTKLEIK ; what log10 of EC50 value has been reported?
Given back: 1.06
